- METHOD NOTES: melting temperature; fluorescence melt of hairpins on a sequencing array, two-state fit, raised by 9.35 °C to match UV melts
- PROTOCOL CONDITIONS: sodium 0.088 M
Recorded Tm values for a group of sequences are listed next.
Provide the measurement as a number trailed by its unit.

Below are worked cases with known answers.
- RESIDUES: "CGAGAGCGGAAACGCTCG (((..(((....))))))"
  Tm: "58.4 °C"
- RESIDUES: "GCGTTGCGAAAGCATCGC (((.(((....))).)))"
  Tm: "61.3 °C"

Request: Look up and state reported Tm for GTGACGCGAAAGCGCAC (((.(((....))))))
Result: 58.8 °C
